# Protocol Conditions: rat; liver microsomes; pH 7.4; 15.0 min; 1.0 µM
Measurement Name: half-life

INSERT INTO assay_data (compound, measurement_name, obs_value) VALUES
  ('COc1cc(-c2nc(-c3ccccc3)c(-c3cccs3)[nH]2)cc(OC)c1O', 'half-life', '> 30 min'),
  ('COc1ccccc1C(=O)Nc1ccccc1C(=O)Nc1cccc(S(=O)(=O)C(F)(F)F)c1', 'half-life', '> 30 min'),
  ('COc1ccc(OC)c(-n2c3c(cc(-c4nc(-c5ccc(Cl)cc5)cs4)c2=O)C(=O)CC(C)(C)C3)c1', 'half-life', '> 30 min'),
  ('O=C(O)Cn1c(C(=O)Nc2nc(-c3ccccc3Cl)cs2)cc2ccccc21', 'half-life', '> 30 min'),
  ('COC(=O)CNC(=O)c1nc(-c2ccc(Cl)nc2)c2ccccn12', 'half-life', '4.72 min'),
  ('CO[C@@H]1[C@H](N(C)C(=O)c2ccccc2)C[C@H]2O[C@]1(C)n1c3ccccc3c3c4c(c5c6ccccc6n2c5c31)C(=O)NC4', 'half-life', '6.54 min'),
  ('CNC(=O)C1=C(C)NC(Nc2nc3ccccc3o2)=NC1c1[nH]ncc1Cl (centres undefined)', 'half-life', '5.7 min'),
  ('O=C(c1ccccc1)N1CCN(c2nc(-c3ccc(Br)cc3)cs2)CC1', 'half-life', '> 30 min'),
  ('O=C(NCC1CCOCC1)C1CC(=O)N(c2n[nH]c3cc(Br)ccc23)C1 (centres undefined)', 'half-life', '> 30 min'),
  ('OCCn1cc(-c2cnc3nnn(Cc4ccc5ncccc5c4)c3n2)cn1', 'half-life', '> 30 min'),
  ('CC(C)(C)C(=O)C(Oc1ccc(Cl)cc1)n1ccnc1 (centres undefined)', 'half-life', '> 30 min'),
  ('O=C(Nc1nc(-c2ccc(F)cc2)cs1)c1ccncc1NS(=O)(=O)c1ccc(F)cc1', 'half-life', '> 30 min'),
  ('Cc1ccccc1C(=O)N1CCc2cc(-c3nc(NC(=O)CC4CCCCC4)sc3C)ccc21', 'half-life', '11 min'),
  ('O=C(Cn1ccn2nc3c(c2c1=O)CCCCC3)Nc1ccc2c(c1)OCO2', 'half-life', '6.81 min');

###

Below, each entry is listed alongside its reported half-life.
# Protocol Conditions: rat; liver microsomes; pH 7.4; 15.0 min; 1.0 µM
Measurement Name: half-life (min)

INSERT INTO assay_data (chemical_string, measurement_name, lt_gt_eq, obs_value) VALUES
  ('Cc1ccc(S(=O)(=O)Nc2cc(Cl)cc(C(=O)Nc3nc(-c4ccccc4)cs3)c2)cc1', 'half-life', '=', 22),
  ('O=C(Nc1ccc([S+](=O)([O-])Nc2nccs2)cc1)c1ncn[nH]1', 'half-life', '>', 30),
  ('Cc1ccccc1CSc1nc2ncc(Br)cc2[nH]1', 'half-life', '=', 7),
  ('Cc1ccc(S(=O)(=O)Nc2cnccc2C(=O)Nc2ccc(C#N)cc2)cc1', 'half-life', '=', 7.5),
  ('Nc1ccccc1OCCn1c(CCNC(=O)C2CCCCC2)nc2ccccc21', 'half-life', '=', 2.13),
  ('CN1CCN(C(=O)c2ccc3cc(CCNc4ncnc5ccc(C#N)cc45)ccc3c2)CC1', 'half-life', '=', 8.11),
  ('O=C(NCCCN1CCCC1=O)c1ccc(-c2ncc3cnc(-c4ccccc4)cn23)cc1', 'half-life', '>', 30),
  ('CCCn1cnc2cc(NCc3ccc(OC)cc3OC)ccc21', 'half-life', '=', 7.1),
  ('CC(C)(C)OC(=O)N[C@@H](Cc1ccc(O[S+](=O)([O-])c2cccc3cnccc23)cc1)C(=O)N1CCN(Cc2ccccc2)CC1', 'half-life', '=', 1.6),
  ('O=S(=O)(Nc1nccs1)c1ccc(NCc2cc(Cl)ccc2O)cc1', 'half-life', '=', 11),
  ('Cn1nnnc1Sc1ncnc2sccc12', 'half-life', '>', 30),
  ('O=C1C(c2ccc(C(F)(F)F)cc2)=C(Nc2ccc(Cl)cc2)c2ccccc21', 'half-life', '=', 29.2),
  ('O=C(CCS(=O)(=O)c1nc(-c2cccs2)cc(C(F)(F)F)n1)Nc1ccc(OC(F)(F)F)cc1', 'half-life', '=', 2.45),
  ('CN(C)C(=O)c1cc(-c2ccc(S(C)(=O)=O)cc2)c2cnn(C)c2n1', 'half-life', '>', 30),
  ('COc1ccc(-c2cc(-c3cccc4[nH]ncc34)cn3cncc23)cn1', 'half-life', '=', 9.28),
  ('CCOC(=O)c1c[nH]c2c3c(ccc2c1=O)CCCC3', 'half-life', '=', 20.4),
  ('O=C(NCc1ccc(N2CCCC2)nc1)c1cc(Cl)ccc1O', 'half-life', '=', 1.9),
  ('Cc1cc(N)c2cc(NC(=O)Nc3ccc4nc(C)cc(N)c4c3)ccc2n1', 'half-life', '>', 30),
  ('Cn1cnc(S(=O)(=O)Nc2cnccc2C(=O)Nc2nc(-c3ccccc3)cs2)c1', 'half-life', '>', 30),
  ('CCC(CC)c1cc([C@H]2CN3CC[C@H]2C[C@@H]3CNC(C)=O)nc(-c2ccncc2)n1', 'half-life', '=', 10.9),
  ('CCOc1ccc(CCNC(=O)c2cc3ccccc3n2C)cc1OCC', 'half-life', '=', 1.38),
  ('C[C@@H](O)CNC(C)(C)CC(=O)N[C@@H]1CCc2ccccc2N(Cc2ccc(-c3ccccc3-c3nn[nH]n3)cc2)C1=O', 'half-life', '>', 30),
  ('Cc1cccc(C(=O)N2CCc3cc(-c4nc(NC(=O)Cc5ccc6c(c5)OCO6)sc4C)ccc32)c1', 'half-life', '=', 4.4),
  ('Cc1ccc(S(=O)(=O)Nc2ccccc2C(=O)Nc2ccc(-c3ccccc3)cc2)cc1', 'half-life', '=', 7.3),
  ('Cc1ccc(-c2cc(C(=O)NCc3ccc(S(N)(=O)=O)cc3)c3ccccc3n2)cc1C', 'half-life', '=', 17),
  ('CCCN(C(=O)c1sc2nc3n(c(=O)c2c1C)CCCC3)c1ccccc1C', 'half-life', '=', 1.36),
  ('COc1ccc(S(=O)(=O)N(CC(=O)Nc2ccc(C)cc2)c2ccc(C)cc2)cc1OC', 'half-life', '=', 3.28),
  ('O=C(c1nc(-c2cccnc2)c2ccccn12)N1CCN(c2ncccn2)CC1', 'half-life', '=', 8.43),
  ('C#CCNC(=O)c1nc(-c2ccc(Cl)nc2)c2ccccn12', 'half-life', '=', 24),
  ('N#CC1CCN(c2nc(-c3ccc(Br)cc3)cs2)CC1', 'half-life', '=', 24.7),
  ('Fc1ccc(CNc2ncnc3onc(-c4ccc(F)cc4)c23)cc1', 'half-life', '=', 28),
  ('Cc1cc(NS(=O)(=O)c2ccc(NC(=O)Cc3ccc(Cl)c(Cl)c3)cc2)n(C)n1', 'half-life', '=', 13),
  ('O=C(c1ccco1)N1CCN(c2nc(-c3ccc(Br)cc3)cs2)CC1', 'half-life', '>', 30),
  ('CCCCN1CCC[C@H]1CNC(=O)c1cc(C#N)c2ccccc2c1OC', 'half-life', '=', 4.23);

###

# Protocol Conditions: rat; liver microsomes; pH 7.4; 15.0 min; 1.0 µM
Measurement Name: half-life (min)

INSERT INTO results (molecule, lt_gt_eq, obs_value) VALUES
  ('COc1cccc(CNc2ccc(S(=O)(=O)Nc3nc4ccccc4s3)cc2)c1O', '>', 30),
  ('Cc1ccc(CNc2ccccc2C(=O)Nc2nc(-c3ccccc3)cs2)cc1', '>', 30),
  ('CN1CCCC1CCOC(c1cc2nccc(C(=O)O)c2[nH]1)c1ccccc1Cl (configuration not stated)', '>', 30),
  ('COc1cccc(CNc2ccc(S(=O)(=O)Nc3nc4ccccc4[nH]3)cc2)c1O', '>', 30),
  ('C/C(=N\NC(N)=S)C1=CCC2C3CC[C@H]4CC(O)CC[C@]4(C)C3CC[C@]12C (some centres not stated)', '>', 30),
  ('CC/C=C\CC1C(=O)CCC1CC(=O)OC (configuration not stated)', '>', 30),
  ('CC1Oc2cc3c(-c4c(O)cc(O)c5c(O)c6c(cc45)OC(C)C(C)C6=O)c(O)cc(O)c3c(O)c2C(=O)C1C (configuration not stated)', '>', 30),
  ('COc1ccc(-n2nc(C3CCCN(C(=O)Nc4ccccc4)C3)[nH]c2=O)cc1 (configuration not stated)', '>', 30),
  ('O=C(Nc1ccc(-c2nc3cc(NC(=O)c4ccccc4Cl)ccc3o2)cc1)c1ccccc1Cl', '>', 30),
  ('Fc1cc(F)cc(Nc2nc(-c3ccncc3)nc3ccccc23)c1', '=', 15),
  ('CCCN1CNc2c(c(=O)[nH]c(=S)n2CCc2ccc(OC)c(OC)c2)C1', '=', 18),
  ('O=C(NC1CCCc2c1[nH]c1c(Cl)cccc21)c1ccc2c(c1)OCO2 (configuration not stated)', '=', 12.8),
  ('Cc1cn(CCN2CCN(c3ccccc3-c3cc(C#N)cc(C(=O)NCCCN4CCCC4)c3)CC2)c2ccccc12', '>', 30),
  ('CNc1oc(-c2cccc3ccccc23)nc1C#N', '=', 17.7),
  ('CCOc1ccc(CCNC(=O)c2cc3ccccc3o2)cc1OCC', '=', 1.6),
  ('CC(C)(C)n1cnc2cc(C(=O)N3CCCCC3)ccc21', '=', 9.7),
  ('NC(=O)COc1cccc(C2CC(=O)Nc3nc(N4CCCCC4)sc32)c1 (configuration not stated)', '=', 5.1),
  ('COCCNC(=O)c1ccc(Cn2c(=S)[nH]c3cc4c(cc3c2=O)OCO4)cc1', '>', 30),
  ('Cn1c(=O)c2c(-c3ccc(Cl)cc3)n(CCc3ccccc3)cc2n(C)c1=O', '=', 1.11),
  ('CC1(COc2ccc3c(c2)ncn3-c2ccc3cccc(N4CCC(N)CC4)c3n2)COC1', '>', 30),
  ('C#CCNC(=O)c1nc(-c2cccnc2)c2ccccn12', '=', 14.8),
  ('c1ccc2c(Nc3ccc4nc[nH]c4c3)nc(-c3ccncc3)nc2c1', '=', 16),
  ('N#Cc1cnc(NS(=O)(=O)c2ccc(NC(=O)Cc3ccc(F)c(Cl)c3)cc2)s1', '>', 30),
  ('Cc1ccccc1C(=O)N1CCc2cc(-c3nc(NC(=O)Cc4ccc5c(c4)OCO5)sc3C)ccc21', '=', 15.5),
  ('CC(=O)c1c(C)[nH]c(C(=O)N(C)C)c1C', '>', 30),
  ('CN1C(=O)CN=C(c2ccccc2Cl)c2cc(Cl)ccc21', '=', 3.04),
  ('CCOC(=O)C1CCN(C(=O)C2(NC(=O)Nc3ccccc3Cl)CCCC2)CC1', '=', 1.5),
  ('O=C(Nc1ncc(Cc2ccc(C(F)(F)F)cc2)s1)c1ccc(-c2cccnc2)o1', '>', 30),
  ('CC(C)c1ccccc1-c1ncc(F)c(NCC2CCN(c3cnccn3)C2)n1 (configuration not stated)', '=', 2.2),
  ('FC(F)(F)c1cccc(N2CCN(C(=S)Nc3ccccn3)CC2)c1', '=', 15.5),
  ('O=C1CCCC2=C1C(c1ncccc1Br)N=C(Nc1nc3ccccc3o1)N2 (configuration not stated)', '=', 11.4),
  ('Cc1ccc(S(=O)(=O)Nc2cnccc2C(=O)Nc2ccc(-n3cncn3)cc2)cc1', '=', 21);
